Biological target: A. aegypti ACP receptor (AedaeACPR)
Assay: Calcium bioluminescence (aequorin) reporter assay of heterologously expressed ACPR
Conditions: CHO-K1 cells stably expressing aequorin, transiently transfected with ACPR and murine Gα15 (pBudCE4.1); luminescence 20 s; 3 to 4 independent biological replicates; ND = no determined EC50 due to minimal or no detectable activity up to 10 μM
Non-standard residues stand in square brackets, D forms with d. Residues, ends and D or L forms follow the SMILES beside them. pGlu = O=C1CC[C@@H](C(=O)O)N1
Quick reference: pEC50 of the listed items.
In plain terms, pEC50 is the concentration in mol/L turned into minus its base-10 logarithm.

Reference set (2 entries):
CC(C)[C@H](NC(=O)[C@@H]1CCC(=O)N1)C(=O)N[C@H](C(=O)N[C@@H](Cc1ccccc1)C(=O)N[C@@H](CO)C(=O)N[C@@H](C)C(=O)N[C@@H](CC(=O)O)C(=O)N[C@@H](Cc1c[nH]c2ccccc12)C(=O)N[C@@H](CC(N)=O)C(=O)N[C@@H](C)C(N)=O)[C@@H](C)O [Aedae-ACP (A6)] ([pGlu]VTFSADWNA-NH2) ... 6.16
CC(C)[C@H](NC(=O)[C@@H]1CCC(=O)N1)C(=O)N[C@H](C(=O)N[C@@H](Cc1ccccc1)C(=O)N[C@@H](C)C(=O)N[C@@H](CCCNC(=N)N)C(=O)N[C@@H](CC(=O)O)C(=O)N[C@@H](Cc1c[nH]c2ccccc12)C(=O)N[C@@H](CC(N)=O)C(=O)N[C@@H](C)C(N)=O)[C@@H](C)O [Aedae-ACP (A5)] ([pGlu]VTFARDWNA-NH2) ... 5.98

# input Write pEC50 of C[C@H](NC(=O)[C@H](CC(N)=O)NC(=O)[C@H](Cc1c[nH]c2ccccc12)NC(=O)[C@H](CC(=O)O)NC(=O)[C@H](CCCNC(=N)N)NC(=O)[C@H](CO)NC(=O)[C@H](Cc1ccccc1)NC(=O)[C@@H](NC(=O)[C@H](C)NC(=O)[C@@H]1CCC(=O)N1)[C@@H](C)O)C(N)=O [Aedae-ACP (A2)] ([pGlu]ATFSRDWNA-NH2) ; system used: A. aegypti ACP receptor (AedaeACPR)
# output 6.15

meta.source: paper PMC6838013
